- System: HepG2 (hepatocellular carcinoma) cell line
- ASSAY_COMMENT: CellTiter-Glo luminescent cell viability assay, HepG2
- Assay type: cell-based, human
- CONDITIONS_USED: Homo sapiens, HepG2; HepG, compound at 4 μM, 72 h
Where a name gives a salt, the structure may show the parent alone.
VALUE_KIND: viability at 4 µM

CC(C)(C)NC1CCN(c2c(C#N)c(NCc3ccc(Cl)cc3)nc3ccccc23)CC1 [Compound 352CN]    71.2%
N#Cc1c(NCc2ccc(Cl)cc2)nc2ccccc2c1N1CCC(Oc2cccc(F)c2)CC1 [Compound 3228CN]    96.7%
N#Cc1c(NCc2ccc(Cl)cc2)nc2ccccc2c1N1CCC(Oc2ccc(F)cc2)C1 (centres unmarked) [Compound 3338CN]    98.8%
N#Cc1c(NCc2ccc(Cl)cc2)nc2ccccc2c1N1CCC(NC2CCOCC2)CC1 [Compound 3180CN]    78.4%
CC(C)(C)NC1CCN(c2c(F)c(Nc3cccc(Nc4nccc(C(F)(F)F)n4)c3)nc3ccccc23)CC1 [Compound 540F]    0.3%
Cn1cc(Nc2nc3ccccc3c(N3CCC(NC(C)(C)C)CC3)c2C#N)cn1 [Compound 3268CN]    68.6%
Cc1nccnc1OC1CCN(c2c(C#N)c(NCc3ccc(Cl)cc3)nc3ccccc23)C1 (centres unmarked) [Compound 3362CN]    78.5%
COc1ccc(Nc2nc3ccccc3c(N3CCC(NC(C)(C)C)CC3)c2C#N)cc1 [Compound 3252CN]    68.4%
Cc1ccc(CNc2nc3ccccc3c(N3CCC(NC(C)(C)C)CC3)c2C#N)cc1 [Compound 3288CN]    0.6%
N#Cc1c(NCc2ccc(Cl)cc2)nc2ccccc2c1N1CCC(NC2CCCC2)CC1 [Compound 3178CN]    6%
CCN(Cc1ccc(Cl)cc1)c1cc(N2CCC(NC(C)(C)C)CC2)c2ccccc2n1 [Compound 214, hydrochloride]    0.3%
Cc1cc(OC2CCN(c3c(C#N)c(NCc4ccc(Cl)cc4)nc4ccccc34)CC2)no1 [Compound 2978CN]    94.5%
CN1CCC(NC2CCN(c3c(C#N)c(NCc4ccc(Cl)cc4)nc4ccccc34)CC2)CC1 [Compound 3182CN]    0.5%
Cc1nc(Nc2nc3ccccc3c(N3CCC(NC(C)(C)C)CC3)c2C#N)n(C)n1 [Compound 3274CN]    63.4%
